Cited source: ChEMBL document CHEMBL3433997

Target: Solute carrier family 2, facilitated glucose transporter member 1 (Homo sapiens)
Test: ST_JUDE_LEISH: Cytotoxicity at 2uM final concentration against transgenic Leishmania Mexicana promastigotes LmGLUT1 that are glucose transport deficient and complemented with the human glucose transporter GLUT1. Activity is measured by DNA content using SYBR green in vitro
Format: functional
Known inhibition of a selection of molecules
Write down the numeric answer in % and omit the unit.

CN(C)CCn1cc(C(=O)c2cc(Cl)ccc2O)cc1-c1nc2ccccc2c(=O)[nH]1 ... 0.7
CNC(=O)c1cnc(Nc2ccc(N3CCOCC3)cc2)nc1Nc1cccc(O)c1 ... 3.92
CCCCCCN1CCC(NCc2ccc(C)cc2)CC1 ... 12.6

Attention now turns to another entry.
Query :: // fetch Solute carrier family 2, facilitated glucose transporter member 1 (Homo sapiens) inhibition for "CCCNCc1ccc(-c2ccc(CN(CCOC)C(=O)c3cccc(C#N)c3)cc2)nc1"
Result :: 1.66
